# System: ADP-ribosylation factor GTPase-activating protein 1 (Rattus norvegicus) (UniProt Q62848)
# Sequence (Q62848 whole entry): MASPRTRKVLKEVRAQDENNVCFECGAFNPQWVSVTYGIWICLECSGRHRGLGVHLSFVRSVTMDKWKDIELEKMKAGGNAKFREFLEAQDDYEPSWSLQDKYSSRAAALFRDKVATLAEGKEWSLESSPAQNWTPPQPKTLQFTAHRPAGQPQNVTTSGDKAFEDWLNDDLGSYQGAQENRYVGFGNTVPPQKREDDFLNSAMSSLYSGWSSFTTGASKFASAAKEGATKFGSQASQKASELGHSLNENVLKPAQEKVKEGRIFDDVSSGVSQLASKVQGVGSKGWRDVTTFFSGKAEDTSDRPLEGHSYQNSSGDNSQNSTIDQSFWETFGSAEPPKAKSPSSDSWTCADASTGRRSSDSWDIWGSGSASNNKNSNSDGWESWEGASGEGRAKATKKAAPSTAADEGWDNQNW
# Test Summary: Inhibition of poly-histidine tagged full-length rat ARFGAP1 expressed in Sf9 cells assessed as remaining enzyme activity at 20 uM using purified WT ARF1 pre-loaded with [gamm-32P]-labeled GTP incubated for 5 mins before ARF1-GTP addition followed by 25 mins incubation by scintillation counting method
Experimental Endpoint: Activity (%)

Example cases with answers are listed next.
c1ccc(-c2ccc(Cn3cnc4c(NCc5cccc6ccccc56)nc(Oc5ccc6ccccc6c5)nc43)cc2)cc1    31
OC[C@H](Cc1ccccc1)Nc1nc(Oc2cccc(C(F)(F)F)c2)nc2c1ncn2Cc1ccc(-c2ccccc2)cc1    78
O=[N+]([O-])c1ccc(Cn2cc(Cn3cnc4c(N[C@H](CO)Cc5ccccc5)nc(Oc5ccc6c(c5)CCC6)nc43)nn2)cc1    45
CC[C@@H](CO)Nc1nc(Oc2ccc3c(c2)CCC3)nc2c1ncn2Cc1ccc(-c2ccccc2)cc1    57
COc1ccc(Cn2cc(Cn3cnc4c(N[C@H](CO)Cc5ccccc5)nc(Oc5ccc6c(c5)CCC6)nc43)nn2)cc1    75

I = CC[C@@H](CO)Nc1nc(Oc2ccc3ccccc3c2)nc2c1ncn2Cc1ccc(-c2ccccc2)cc1
II = COc1cc(OC)cc(Oc2nc(N[C@H](CO)Cc3ccccc3)c3ncn(Cc4ccc(-c5ccccc5)cc4)c3n2)c1
Hi there, can you help? I need to know whether I or II has lower measured Activity. Answer format: the label of the selected item.
II

P = OC[C@H](Cc1ccccc1)Nc1nc(N2CCOCC2)nc2c1ncn2Cc1ccc(-c2ccccc2)cc1
Q = FC(F)(F)c1cccc(Oc2nc(NCc3cccc4ccccc34)c3ncn(Cc4ccc(-c5ccccc5)cc4)c3n2)c1
R = Cc1ccccc1Cn1cc(Cn2cnc3c(N[C@H](CO)Cc4ccccc4)nc(Oc4ccc5c(c4)CCC5)nc32)nn1
S = OC[C@H](Cc1ccccc1)Nc1nc(Oc2ccc3c(c2)CCC3)nc2c1ncn2Cc1ccccc1
Sort (4 compounds) by Activity: min first. # output: labels, in the requested order
Q, R, P, S
(Q: 12%, R: 27%, P: 71%, S: 113%)

P = c1ccc(CCNc2nc(Oc3ccc4c(c3)CCC4)nc3c2ncn3Cc2ccc(-c3ccccc3)cc2)cc1
Q = COc1ccc(-c2ccc(Cn3cnc4c(N[C@H](CO)Cc5ccccc5)nc(Oc5ccc6c(c5)CCC6)nc43)cc2)cc1
Which value of Activity is numerically greater: that of P or that of Q ? Answer format: the label of the selected item.
P

----------
# System: ADP-ribosylation factor GTPase-activating protein 1 (Rattus norvegicus) (UniProt Q62848)
# Test Summary: Inhibition of poly-histidine tagged full-length rat ARFGAP1 expressed in Sf9 cells assessed as remaining enzyme activity at 10 uM using purified WT ARF1 pre-loaded with [gamm-32P]-labeled GTP incubated for 5 mins before ARF1-GTP addition followed by 25 mins incubation by scintillation counting method
Experimental Endpoint: Activity (%)

c1ccc(-c2ccc(Cn3cnc4c(NCc5cccc6ccccc56)nc(Oc5ccc6c(c5)OCO6)nc43)cc2)cc1    35
COc1cccc(Oc2nc(N[C@H](CO)Cc3ccccc3)c3ncn(Cc4ccc(-c5ccccc5)cc4)c3n2)c1    54
COc1ccc(-c2ccc(Cn3cnc4c(N[C@H](CO)Cc5ccccc5)nc(Oc5ccc6c(c5)CCC6)nc43)cc2)cc1    42
CC[C@@H](CO)Nc1nc(Oc2cccc3ccccc23)nc2c1ncn2Cc1ccc(-c2ccccc2)cc1    22
OC[C@H](Cc1ccccc1)Nc1nc(Oc2ccc3c(c2)CCC3)nc2c1ncn2Cc1ccc(Oc2ccccc2)cc1    42
Cc1ccccc1-c1ccc(Cn2cnc3c(N[C@H](CO)Cc4ccccc4)nc(Oc4ccc5c(c4)CCC5)nc32)cc1    56
CC(c1ccc(-c2ccccc2)cc1)n1cnc2c(N[C@H](CO)Cc3ccccc3)nc(Oc3ccc4c(c3)CCC4)nc21 (stereo partly drawn)    50
OC[C@H](Cc1ccccc1)Nc1nc(Oc2ccc3c(c2)CCC3)nc2c1ncn2Cc1ccc(-c2ccccc2)cc1    33

P = OC[C@H](Cc1ccccc1)Nc1nc(Oc2cccc(C(F)(F)F)c2)nc2c1ncn2Cc1ccc(-c2ccccc2)cc1
Q = c1ccc(CCNc2nc(Oc3cccc4ccccc34)nc3c2ncn3Cc2ccc(-c3ccccc3)cc2)cc1
Hi there, can you help? I need to know whether P or Q has lower measured Activity. Answer format: the label of the selected item.
Q
